- test description: COS7 lysate on small-molecule microarray, probe aHis, 635 nm (AID 1123);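 note: z-score combines 667nm fluorescence intensity with signal-to-noise per printed compound spot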
- measurement parameters: COS7 cell lysate, fluorescence, higher = more signal
Outcome label depends on composite z-score relative to 1: at/above gives MET, below gives NOT MET.

These solved cases illustrate the format of a correct answer.
Input line: Could you please find out whether O=C1O[C@@H](c2ccccc2)[C@@H](c2ccccc2)N2[C@@H](c3ccc(O)cc3)[C@]3(C(=O)Nc4ccccc43)[C@@H](C(=O)Nc3nc4ccccc4s3)[C@H]12 has composite z-score that meets 1 or exceeds it?
Output line: MET

Input line: Input COC(=O)C(CC#Cc1ccc2c(c1)[C@]1(C(=O)N2)[C@H](C(=O)O)[C@H]2C(=O)O[C@H](c3ccccc3)[C@H](c3ccccc3)N2[C@@H]1c1ccccc1OCCO)C(=O)OC
Output line: MET

Input line: Input [N-]=[N+]=Nc1ccccc1[C@@H]1OC(c2ccc(OCCCO)cc2)=N[C@]1(CCS(=O)(=O)c1ccccc1)C(=O)NCCN1CCOCC1
Output line: MET

Input line: Input C=C(CCCC)C(=O)CC[C@@H](OC(=O)c1ccccc1-c1ccccc1C(=O)O)c1cccc(OCCO)c1
Output line: NOT MET

Input line: Input NC(=O)N1C(=O)C2C(C1=O)C1C=C(CCCO)C2C(c2cccs2)N1Cc1cc2c(cc1Br)OCO2 (configuration not stated)
Output line: MET

Input line: Input COc1cc(CO)cc(I)c1O[C@H]1C=C(C(=O)NCCO)C[C@@H](NCc2ccccc2F)[C@@H]1O
Output line: NOT MET

Then there is this compound:
Input line: Could you please find out whether CC(C)CNC(=O)[C@@]1(c2ccc([N+](=O)[O-])cc2)CC(=O)N(C2CCCCC2)[C@@H]1c1ccc(CO)cc1I has composite z-score that meets 1 or exceeds it?
Output line: MET
